- system: HLA-B*08:01 (human)
- experimental.protocol: UV peptide exchange; HLA class I ELISA
- assay.context: remark: other sources report otherwise
Criterion: exchange rate with Pos strictly less than 5%. Met: Fulfilled. Not met: Not fulfilled.

Check out these entries, answers already filled in.
>>> label("HVPKILSGK (here or on the partner: biotinylated heavy chain) [P58 9-mer … (AR Q903H)]")
"Not fulfilled"
>>> label("CYLGRQKRF (here or on the partner: biotinylated heavy chain) [P61 9-mer … (FOXA1.p.R261G)]")
"Fulfilled"
>>> label("IVWWCPMSR (here or on the partner: biotinylated heavy chain) [P98 9-mer … (TP53 R213D frameshift)]")
"Fulfilled"
>>> label("YLRRQKRLK (here or on the partner: biotinylated heavy chain) [P60 9-mer … (FOXA1.p.F266L)]")
"Not fulfilled"

Is 5% strictly greater than the binder's reported exchange rate with Pos? binder: RAVRRMNTF (here or on the partner: biotinylated heavy chain) [P17 9-mer … (MSMB-NOCA4 fusion)]
Not fulfilled
